Field: IC50. Provide a value for each of the binders that follow.
# EXPERIMENTAL TARGET: T1, soluble gp34 wild type ectodomain, V5-His tagged (sgp34wt-V5-His) (HCMV strain AD169)
# T1 construct: Entry holds signal peptide 1-23 (left out), ectodomain, V5 tag and His tag; Forms monomers, dimers and higher oligomers; also called sol gp34 wt; gp34 1-179
# T1 chain: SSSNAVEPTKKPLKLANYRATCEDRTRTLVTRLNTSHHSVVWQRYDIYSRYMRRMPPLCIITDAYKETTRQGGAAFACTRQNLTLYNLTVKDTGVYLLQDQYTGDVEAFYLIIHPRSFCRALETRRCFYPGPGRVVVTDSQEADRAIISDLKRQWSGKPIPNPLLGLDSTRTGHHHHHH
# PROTOCOL SUMMARY: blocking of sgp34wt binding to immobilized human IgG, ELISA
Reply with just the number (in µg/mL).

IC50 for gp34mtrp.03 (antibody, V domains shown, mouse IgG1 hybridoma mAb; leader in entries; also called anti gp34 clone mtrp.03) VH: EVQLEESGTVLARPGASVKMSCKASGYTFTSYWMHWVKQRPGQGLEWIGAIYPGNSDTGYNQKFKGKARLTAVTSTSTAYLELSSLTDEDSAVYFCTRLGYGDYWGQGTTLTVSS VL: DIVLTQTPSSMYASLGERVTITCKASQDINSYLTWFQQKPGKSPKTLIYRANRLVDGVPSRFSGSGSGQDYSLTINSLDYEDMGIYYCLQYDEFPPTFGGGTKLEIK ? 0.152

// repeat for gp34mtrp.02 (antibody, V domains shown, mouse IgG1 hybridoma mAb; leader in entries; also called anti gp34 clone mtrp.02) VH: QVKLEQSGAELVKPGASVKLSCTGSGFNIKDIYMDWVKQRPEQGLEWIGRIDPANGNSKYDPKFQGKATITVDTSSNTAYLQLSSLTSEDTAVYYCASYYGSSYNYWGQGTTLTVSS VL: DIVITQTPPSVPVTPGESVSISCRSSKSLLHSNGNTYLYWFLQRPGQSPQLLIYRMSNLASGVPDRFSGSGSGTAFTLRISRVEAEDVGVYYCMQHLEYPLTFGAGTKLELKRADAAPTVS and report 0.33

Please answer likewise for gp34mtrp.06 (antibody, V domains shown, mouse IgG1 hybridoma mAb; leader in entries; also called anti gp34 clone mtrp.06) VH: EVQLLQSGPEVKKPGETVKISCKASGYTFTNYGMSWLRQAPGKGLKWMGWINTYTGEPTYADDFKGRFAFSLETSASTAYFQINNLKNEDTTTYFCARRAFGGLDYWGQGTSVTVSS VL: DIVLTQSPLSLPVSLGDQASISCRSSQSIVYTNGNTYLEWYLQKPGQSPKLLIYKVSNRFSGVPDRFSGSGSGTDFTLKISRVEAEDLGVYYCFQGSHVPWTFGGGTKLEIK 4.46

Let us now turn to gp34wt.08 (antibody, V domains shown, mouse IgG1 hybridoma mAb; leader in entries; also called anti gp34 clone wt.08) VH: EVQLEQSGPELVKTGASVKISCKASGYSFTSYQIYWVKQSHGKSLEWIGHISCYNGATSYNQKFKDKATFTVDTSSSTAYMQFNSLTSEDSAVYFCARYDYAPDYYAMDYWGQGTSVTVSS VL: DIVMTQTPASLAVSLGQRATISCRASESVDSYGNSFMHWYQQKPGQPPKLLIYLASNLESGVPARFSGSGSRTDFTLTIDPVEAEDAAIYYCQQNNEDPLTFGGGTKLELK 0.494

Request: gp34mtrp.01 (antibody, V domains shown, mouse IgG1 hybridoma mAb; leader in entries; also called anti gp34 clone mtrp.01) VH: QVKLEESGAELVKPGASVKLSCTGSGFNIKDIYMDWVKQRPEQGLEWIGRIDPANGNSKYDPKFQGKATITVDTSSNTAYLQLSSLTSEDTAVYYCASYYGSSYNYWGQGTTLTVSS VL: DIVITQTPPSVPVTPGESVSISCRSSKSLLHSNGNTYLYWFLQRPGQSPQLLIYRMSNLASGVPDRFSGSGSGTAFTLRISRVEAEDVGVYYCMQHLEYPLTFGAGTKLELKRADAAPTVS 0.239

Values from patent US20250270295A1
